Measured values drawn from ChEMBL document CHEMBL1629537 for this set.

Would you kindly list pIC50 for each of these compounds?
tested on: HCT-116; assay: cells; assay type: functional, cell-based; conditions: Homo sapiens, HCT-116, 48 h
// returns pIC50 (minus log10 of molar concentration), number only

QUERY: Return pIC50 measured with HCT-116 given this compound: O=C(CCCCCC1OCCCCCOc2ccccc2NC1=O)NO (racemic)
RESULT: 6.16

QUERY: Return pIC50 measured with HCT-116 given this compound: COc1cc2cc(c1)COc1ccccc1NC(=O)C(CCCCCC(=O)NO)OC/C=C\2 (racemic)
RESULT: 6.35

QUERY: Return pIC50 measured with HCT-116 given this compound: CC(/C=C/C(=O)NO)=C\[C@@H](C)C(=O)c1ccc(N(C)C)cc1
RESULT: 7.37

QUERY: Return pIC50 measured with HCT-116 given this compound: O=C(/C=C/c1ccc(CN(CCO)CCc2c[nH]c3ccccc23)cc1)NO
RESULT: 7.74

QUERY: Return pIC50 measured with HCT-116 given this compound: COc1cc2cc(c1)COc1ccccc1NC(=O)[C@@H](CCCCCC(=O)NO)OCCC2
RESULT: 6.07

QUERY: Return pIC50 measured with HCT-116 given this compound: COc1cc2cc(c1)COc1ccccc1NC(=O)[C@H](CCCCCC(=O)NO)OCCC2
RESULT: 6.28

---

target: Histone deacetylase 2 (Homo sapiens, UniProt Q92769)
Sequence (Q92769 whole entry): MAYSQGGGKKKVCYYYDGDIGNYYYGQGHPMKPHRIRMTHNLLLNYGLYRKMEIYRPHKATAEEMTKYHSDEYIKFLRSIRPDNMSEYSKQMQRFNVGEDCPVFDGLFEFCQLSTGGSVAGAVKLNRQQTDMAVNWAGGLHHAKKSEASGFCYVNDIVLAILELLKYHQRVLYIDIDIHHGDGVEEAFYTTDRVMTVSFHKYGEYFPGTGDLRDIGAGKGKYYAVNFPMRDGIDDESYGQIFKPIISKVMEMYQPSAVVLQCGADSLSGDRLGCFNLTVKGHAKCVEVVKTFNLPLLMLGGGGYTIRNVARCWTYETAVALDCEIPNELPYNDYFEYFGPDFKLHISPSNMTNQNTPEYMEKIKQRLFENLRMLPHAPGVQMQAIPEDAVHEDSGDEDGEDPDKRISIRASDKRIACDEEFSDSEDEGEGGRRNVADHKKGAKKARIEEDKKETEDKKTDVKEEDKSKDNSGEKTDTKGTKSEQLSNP
pIC50: −log10 of the molar value.
Outcome: true for pIC50 of at least 6; false for anything lower.

QUERY: I'd appreciate it if you could say whether COc1cc2cc(c1)COc1ccccc1NC(=O)[C@H](CCCCCC(=O)NO)OCCC2 has pIC50 at least equal to 6.
RESULT: true

QUERY: I'd appreciate it if you could say whether COc1cc2cc(c1)COc1ccccc1NC(=O)[C@H](CCCCCC(=O)NO)OC/C=C\2 has pIC50 at least equal to 6.
RESULT: true

QUERY: I'd appreciate it if you could say whether COc1cc2cc(c1)COc1ccccc1NC(=O)[C@@H](CCCCCC(=O)NO)OC/C=C\2 has pIC50 at least equal to 6.
RESULT: true

QUERY: I'd appreciate it if you could say whether O=C(CCCCCC1OCCCCCCCOc2ccccc2NC1=O)NO (racemic) has pIC50 at least equal to 6.
RESULT: false

QUERY: I'd appreciate it if you could say whether O=C(CCCCCC1OCCCCCOc2ccccc2NC1=O)NO (racemic) has pIC50 at least equal to 6.
RESULT: false

QUERY: I'd appreciate it if you could say whether O=C(CCCCCC1OCCCCCCOc2ccccc2NC1=O)NO (racemic) has pIC50 at least equal to 6.
RESULT: false

QUERY: I'd appreciate it if you could say whether COc1cc2cc(c1)COc1ccccc1NC(=O)[C@@H](CCCCCC(=O)NO)OCCC2 has pIC50 at least equal to 6.
RESULT: true

QUERY: I'd appreciate it if you could say whether COc1cc2cc(c1)COc1ccccc1NC(=O)C(CCCCCC(=O)NO)OC/C=C\2 (racemic) has pIC50 at least equal to 6.
RESULT: true

---

Target: Polyamine deacetylase HDAC10 (Homo sapiens)
Sequence (Q969S8 whole entry): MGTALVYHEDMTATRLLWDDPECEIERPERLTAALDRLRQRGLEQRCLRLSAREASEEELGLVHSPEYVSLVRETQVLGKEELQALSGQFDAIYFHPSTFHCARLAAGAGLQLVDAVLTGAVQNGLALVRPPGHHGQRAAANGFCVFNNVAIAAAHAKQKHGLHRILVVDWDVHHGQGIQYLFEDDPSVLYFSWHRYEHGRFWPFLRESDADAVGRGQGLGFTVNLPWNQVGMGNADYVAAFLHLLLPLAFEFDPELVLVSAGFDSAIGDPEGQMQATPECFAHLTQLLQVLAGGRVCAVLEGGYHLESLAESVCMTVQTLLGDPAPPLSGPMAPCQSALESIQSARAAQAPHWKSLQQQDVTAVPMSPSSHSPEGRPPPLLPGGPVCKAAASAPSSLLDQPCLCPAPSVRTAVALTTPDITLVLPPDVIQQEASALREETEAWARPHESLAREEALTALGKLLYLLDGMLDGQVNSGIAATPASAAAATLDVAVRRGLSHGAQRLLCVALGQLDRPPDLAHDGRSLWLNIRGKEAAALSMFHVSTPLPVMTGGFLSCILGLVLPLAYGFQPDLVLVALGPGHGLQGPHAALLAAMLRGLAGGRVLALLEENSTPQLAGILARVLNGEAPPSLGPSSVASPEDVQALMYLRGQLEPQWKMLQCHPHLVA
Would you kindly list pIC50 for each of these compounds?
// returns pIC50 (minus log10 of molar concentration), number only

QUERY: Return pIC50 measured with Polyamine deacetylase HDAC10 (Homo sapiens) given this compound: O=C(CCCCCC1OCCCCCCOc2ccccc2NC1=O)NO (racemic)
RESULT: 6.17

QUERY: Return pIC50 measured with Polyamine deacetylase HDAC10 (Homo sapiens) given this compound: COc1cc2cc(c1)COc1ccccc1NC(=O)C(CCCCCC(=O)NO)OCCC2 (racemic)
RESULT: 6.49

QUERY: Return pIC50 measured with Polyamine deacetylase HDAC10 (Homo sapiens) given this compound: COc1cc2cc(c1)COc1ccccc1NC(=O)[C@H](CCCCCC(=O)NO)OC/C=C\2
RESULT: 7.20

QUERY: Return pIC50 measured with Polyamine deacetylase HDAC10 (Homo sapiens) given this compound: O=C(CCCCCC1OCCCCCOc2ccccc2NC1=O)NO (racemic)
RESULT: 5.82

QUERY: Return pIC50 measured with Polyamine deacetylase HDAC10 (Homo sapiens) given this compound: COc1cc2cc(c1)COc1ccccc1NC(=O)C(CCCCCC(=O)NO)OC/C=C\2 (racemic)
RESULT: 7.15

QUERY: Return pIC50 measured with Polyamine deacetylase HDAC10 (Homo sapiens) given this compound: COc1cc2cc(c1)COc1ccccc1NC(=O)[C@H](CCCCCC(=O)NO)OCCC2
RESULT: 6.72

QUERY: Return pIC50 measured with Polyamine deacetylase HDAC10 (Homo sapiens) given this compound: O=C(CCCCCC1OCCCCCCCOc2ccccc2NC1=O)NO (racemic)
RESULT: 6.02

QUERY: Return pIC50 measured with Polyamine deacetylase HDAC10 (Homo sapiens) given this compound: COc1cc2cc(c1)COc1ccccc1NC(=O)[C@@H](CCCCCC(=O)NO)OC/C=C\2
RESULT: 6.82

QUERY: Return pIC50 measured with Polyamine deacetylase HDAC10 (Homo sapiens) given this compound: COc1ccc(COC(CCCCCC(=O)NO)C(=O)Nc2ccccc2)cc1 (racemic)
RESULT: 6.75

QUERY: Return pIC50 measured with Polyamine deacetylase HDAC10 (Homo sapiens) given this compound: COc1cc2cc(c1)COc1ccccc1NC(=O)[C@@H](CCCCCC(=O)NO)OCCC2
RESULT: 6.70

---

biological target: Histone deacetylase 8 (Homo sapiens)
Sequence (Q9BY41 whole entry): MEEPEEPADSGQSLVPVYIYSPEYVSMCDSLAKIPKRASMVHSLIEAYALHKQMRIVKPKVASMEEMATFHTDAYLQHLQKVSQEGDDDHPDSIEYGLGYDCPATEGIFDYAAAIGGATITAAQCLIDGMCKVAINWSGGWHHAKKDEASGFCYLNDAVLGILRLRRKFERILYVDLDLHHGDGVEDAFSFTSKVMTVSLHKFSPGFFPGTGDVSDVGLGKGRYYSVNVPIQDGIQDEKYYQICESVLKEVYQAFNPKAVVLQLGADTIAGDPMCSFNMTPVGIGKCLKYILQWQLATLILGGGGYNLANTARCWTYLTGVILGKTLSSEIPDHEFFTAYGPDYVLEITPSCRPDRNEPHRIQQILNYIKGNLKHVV
IC50 less than 400 nM is Met; IC50 greater than or equal to 400 nM is Not met.

QUERY: Given the entry COc1cc2cc(c1)COc1ccccc1NC(=O)[C@H](CCCCCC(=O)NO)OCCC2 , would its reported IC50 be below 400 nM?
RESULT: Met

QUERY: Given the entry COc1cc2cc(c1)COc1ccccc1NC(=O)C(CCCCCC(=O)NO)OC/C=C\2 (racemic) , would its reported IC50 be below 400 nM?
RESULT: Met

QUERY: Given the entry O=C(CCCCCC1OCCCCCCOc2ccccc2NC1=O)NO (racemic) , would its reported IC50 be below 400 nM?
RESULT: Not met

QUERY: Given the entry O=C(CCCCCC1OCCCCCOc2ccccc2NC1=O)NO (racemic) , would its reported IC50 be below 400 nM?
RESULT: Not met

QUERY: Given the entry COc1cc2cc(c1)COc1ccccc1NC(=O)C(CCCCCC(=O)NO)OCCC2 (racemic) , would its reported IC50 be below 400 nM?
RESULT: Not met

---

The following molecules have recorded IC50 on Protein deacetylase HDAC6 (Homo sapiens).
Sequence (Q9UBN7 whole entry): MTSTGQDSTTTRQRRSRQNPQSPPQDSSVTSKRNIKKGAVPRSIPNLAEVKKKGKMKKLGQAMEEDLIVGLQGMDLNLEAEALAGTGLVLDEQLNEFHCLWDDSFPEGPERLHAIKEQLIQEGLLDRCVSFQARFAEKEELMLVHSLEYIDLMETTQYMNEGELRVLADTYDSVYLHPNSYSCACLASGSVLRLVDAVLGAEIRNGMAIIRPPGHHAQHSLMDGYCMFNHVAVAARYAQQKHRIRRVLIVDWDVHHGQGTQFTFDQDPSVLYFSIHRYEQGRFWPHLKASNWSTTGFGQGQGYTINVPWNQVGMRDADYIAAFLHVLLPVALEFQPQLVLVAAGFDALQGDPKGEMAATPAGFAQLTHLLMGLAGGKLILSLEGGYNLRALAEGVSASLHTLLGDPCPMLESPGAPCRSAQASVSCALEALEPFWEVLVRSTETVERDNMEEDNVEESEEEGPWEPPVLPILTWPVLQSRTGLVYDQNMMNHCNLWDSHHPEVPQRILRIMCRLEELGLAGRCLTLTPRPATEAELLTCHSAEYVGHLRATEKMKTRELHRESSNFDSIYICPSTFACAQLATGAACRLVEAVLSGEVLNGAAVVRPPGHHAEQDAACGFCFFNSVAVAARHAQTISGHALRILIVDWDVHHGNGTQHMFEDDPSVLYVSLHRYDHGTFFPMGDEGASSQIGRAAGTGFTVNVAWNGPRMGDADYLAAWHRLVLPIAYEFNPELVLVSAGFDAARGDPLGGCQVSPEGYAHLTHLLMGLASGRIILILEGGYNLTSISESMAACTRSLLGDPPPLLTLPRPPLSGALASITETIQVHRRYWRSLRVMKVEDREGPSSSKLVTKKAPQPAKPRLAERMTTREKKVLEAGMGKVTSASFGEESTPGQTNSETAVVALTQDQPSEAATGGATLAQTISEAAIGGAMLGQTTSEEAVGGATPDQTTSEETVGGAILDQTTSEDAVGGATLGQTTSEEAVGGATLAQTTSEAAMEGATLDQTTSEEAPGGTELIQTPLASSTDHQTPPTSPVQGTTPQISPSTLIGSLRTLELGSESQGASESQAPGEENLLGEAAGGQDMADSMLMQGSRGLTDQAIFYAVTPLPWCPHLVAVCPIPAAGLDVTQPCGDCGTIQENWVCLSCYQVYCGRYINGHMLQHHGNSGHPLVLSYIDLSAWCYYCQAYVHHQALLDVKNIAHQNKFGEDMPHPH
// units = nM; emit number, no label

QUERY: Name the recorded IC50 for COc1cc2cc(c1)COc1ccccc1NC(=O)C(CCCCCC(=O)NO)OCCC2 (racemic) .
RESULT: 8.44

QUERY: Name the recorded IC50 for COc1cc2cc(c1)COc1ccccc1NC(=O)[C@@H](CCCCCC(=O)NO)OCCC2 .
RESULT: 3.92

QUERY: Name the recorded IC50 for COc1cc2cc(c1)COc1ccccc1NC(=O)[C@H](CCCCCC(=O)NO)OC/C=C\2 .
RESULT: 0.84

QUERY: Name the recorded IC50 for COc1ccc(COC(CCCCCC(=O)NO)C(=O)Nc2ccccc2)cc1 (racemic) .
RESULT: 20.1

QUERY: Name the recorded IC50 for O=C(CCCCCC1OCCCCCOc2ccccc2NC1=O)NO (racemic) .
RESULT: 15.6
